The binders listed here are annotated with their log10 Kd.
target: human insulin receptor (HIR) (human, UniProt P06213); test: competition
No end group written: not given here.
readout-name: log10 Kd (log10 of the value in nM)

>>> measured_value("SLEHEWAQVECEVYGRGCPSGSLDESFYDWFERQLG [S537]")
-1.36
>>> measured_value("SLNFYDALQLLAKK [S119]")
1.26
>>> measured_value("SLEEEWAQVEAEVYGRGAPSGSLDESFYDWFERQLG [S551]")
-1.14
>>> measured_value("S423 (ends and bridges not checked; also: two chains joined C-terminus to C-terminus, the link is not given here) chain 1: ESFYDWFERQLGK chain 2: ACAWPTYWNCG")
1.79
>>> measured_value("AAAAFYDWFAAAAAKK [S168]")
1.58
